- TEST_SYSTEM: T1, LIN7C, Q9NUP9
- T1 sequence (Q9NUP9 88-185, limits assumed, looked up): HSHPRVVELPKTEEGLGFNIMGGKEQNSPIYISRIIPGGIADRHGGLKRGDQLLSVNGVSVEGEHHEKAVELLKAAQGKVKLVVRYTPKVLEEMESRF
- ASSAY_PROCEDURE: holdup assay
- Set-up: key: below the threshold = too weak to quantify, mostly under pKd 3.1 to 4
- CONDITION_DETAILS: plain residues with an end cap or a label only (N-terminal biotin on a linker: ahx)
RESULT_TYPE: pKd

Below, 5 binders whose answers are already recorded.
RRRKRKRTYL [HPV49-L2, P36762] = below the threshold
PSASCAVTAA [PDLIM4, P50479;P50479-2] = below the threshold
SDSSGQEYSL [KCTD3, Q9Y597] = below the threshold
LSDPSVSTVV [GRIN1, Q05586;Q05586-2] = below the threshold
HNAFLSVTTV [PDZRN4, Q6ZMN7] = 3.68

For record RAVEEEESRF [PSCDBP, O60759] the listed pKd is below the threshold

From: paper PMC9482650
